- study_target: human AR (Homo sapiens)
- Sequence (P10275 1-920): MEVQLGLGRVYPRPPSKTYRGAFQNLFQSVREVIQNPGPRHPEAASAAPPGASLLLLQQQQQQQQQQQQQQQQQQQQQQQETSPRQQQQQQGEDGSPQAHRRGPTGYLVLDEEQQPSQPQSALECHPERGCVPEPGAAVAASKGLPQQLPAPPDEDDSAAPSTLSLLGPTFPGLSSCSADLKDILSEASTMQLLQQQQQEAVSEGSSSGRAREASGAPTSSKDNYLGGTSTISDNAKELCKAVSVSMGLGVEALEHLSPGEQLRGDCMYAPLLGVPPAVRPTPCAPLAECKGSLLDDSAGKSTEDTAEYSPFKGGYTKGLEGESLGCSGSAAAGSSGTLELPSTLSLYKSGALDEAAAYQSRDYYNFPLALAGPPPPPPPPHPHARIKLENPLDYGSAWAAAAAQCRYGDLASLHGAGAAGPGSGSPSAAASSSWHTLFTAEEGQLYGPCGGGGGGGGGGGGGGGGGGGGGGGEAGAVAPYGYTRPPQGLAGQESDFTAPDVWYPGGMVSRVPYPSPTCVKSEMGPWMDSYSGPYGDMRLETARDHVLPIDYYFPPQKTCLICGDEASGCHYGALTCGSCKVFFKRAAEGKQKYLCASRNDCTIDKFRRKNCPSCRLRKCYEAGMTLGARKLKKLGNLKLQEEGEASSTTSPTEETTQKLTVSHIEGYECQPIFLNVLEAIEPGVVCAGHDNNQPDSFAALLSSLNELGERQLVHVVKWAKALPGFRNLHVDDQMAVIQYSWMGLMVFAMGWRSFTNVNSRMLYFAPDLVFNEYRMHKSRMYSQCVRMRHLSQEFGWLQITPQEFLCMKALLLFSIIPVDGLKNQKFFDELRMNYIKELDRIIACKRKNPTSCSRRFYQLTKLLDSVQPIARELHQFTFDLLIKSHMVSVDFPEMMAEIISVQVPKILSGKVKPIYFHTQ
- protocol_details: Co-transfection assay, AR antagonist activity in presence of DHT, CV-1 cells
- Type: cell-based
- Parameters: expressed in transfected cells; host or cells: CV-1 cells (African green monkey kidney fibroblasts), transient transfection with pRShAR
- condition_notes: CV-1 cells; percent maximal inhibition, DHT at its EC50 concentration
property_name: AR Antagonist CV-1 Cells Efficacy (%)

Worked cases, answers included:
• CC1=CC(C)(C)Oc2cc3oc(=O)cc(C(F)(F)F)c3cc21 [Compound 223] = 66%
• Cc1[nH]c2c(ccc3[nH]c(=O)cc(C(F)(F)F)c32)c1CCO [Compound 177] = 98%

Kindly consider the entry below.
Task item: What measured AR Antagonist CV-1 Cells Efficacy (%) goes with CCc1[nH]c2c(ccc3[nH]c(=O)cc(C(F)(F)F)c32)c1C [Compound 175] ?
Reply: 78%

---

I'd be grateful if you could share measured Ki for these entries.
- study_target: human AR (Homo sapiens, UniProt P10275)
- protocol_details: AR whole cell competitive binding assay (3H-DHT), transfected COS-1 cells
- Parameters: expressed in transfected cells; transient transfection with pRShAR
- condition_notes: read-out: AR Binding Ki
Numbers only, in µM.

• CC1C(c2ccc(N(C)C)cc2)c2c(ccc3[nH]c(=O)cc(C(F)(F)F)c23)N1CC(F)(F)F (racemic) = 0.107

Task item: What measured Ki goes with CCC1C(C)c2c(ccc3[nH]c(=O)ccc23)N1CC(F)(F)F (racemic) ?
Reply: 0.127

---

- study_target: human AR (Homo sapiens, UniProt P10275)
- protocol_details: AR whole cell competitive binding assay (3H-DHT), transfected COS-1 cells
- Parameters: expressed in transfected cells; transient transfection with pRShAR
- condition_notes: AR Binding Ki (nM), COS-1 cells, 1 nM 3H-DHT, Cheng-Prusoff from IC50
Define the label as label 1 when Ki is strictly less than 40 nM and as label 0 in all remaining cases.

The following compounds have reported results that may help.
- CCC1C(C)c2c(ccc3[nH]c(=O)cc(C(F)(F)F)c23)N1CC(F)(F)F (racemic) [Compound 134]: label 1
- CC1(C)CCc2c(ccc3[nH]c(=O)cc(C(F)(F)F)c23)N1CC(F)(F)F [Compound 110]: label 1

Task item: Given the entry CCC1=CC(C)(C)Oc2cc3oc(=O)cc(C(F)(F)F)c3cc21 [Compound 227] , would its reported Ki be below 40 nM?
Reply: label 1

Task item: Given the entry C=CCc1c(C)[nH]c2c1ccc1[nH]c(=O)cc(C(F)(F)F)c12 [Compound 173] , would its reported Ki be below 40 nM?
Reply: label 0

---

- study_target: human AR (Homo sapiens)
- protocol_details: Co-transfection assay, AR agonist activity, CV-1 cells
- Assay type: cell-based
- Design: expressed in transfected cells; host or cells: CV-1 cells (African green monkey kidney fibroblasts), transient transfection with pRShAR
- condition_notes: AR Agonist CV-1 Cells Potency (nM), agonist potency or EC50
property_name: log10(EC50) (log10 of the value in nM)
Please keep in mind that the values are log10 of EC50 expressed in nM.

Worked cases, answers included:
* CCCN1CCCc2cc3[nH]c(=O)cc(C(F)(F)F)c3cc21 | 1.62
* O=c1cc(C(F)(F)F)c2c3c(ccc2[nH]1)N(CC(F)(F)Cl)C1CCCC31 (racemic) | 0.20
* O=c1cc(C(F)(F)F)c2cc3c(cc2[nH]1)CCCN3CC(F)(F)F | 0.23
* CC1C(c2ccc(N(C)C)cc2)c2c(ccc3[nH]c(=O)cc(C(F)(F)F)c23)N1CC(F)(F)F (racemic) | 2.16

Kindly consider the entry below.
Task item: Query log10(EC50) on human AR (Homo sapiens) for O=c1cc(C(F)(F)F)c2c3c(ccc2[nH]1)N(CC(F)(F)F)CC3c1ccccc1 (racemic)
Reply: 1.93

---

- study_target: human AR (Homo sapiens)
- protocol_details: Co-transfection assay, AR antagonist activity in presence of DHT, CV-1 cells
- Format: cell-based
- Design: expressed in transfected cells; host or cells: CV-1 cells (African green monkey kidney fibroblasts), transient transfection with pRShAR
- condition_notes: CV-1 cells; percent maximal inhibition, DHT at its EC50 concentration
property_name: AR Antagonist CV-1 Cells Efficacy (%)
Numbers only, in %.

Worked cases, answers included:
* C=CCc1c(C)[nH]c2c1ccc1[nH]c(=O)cc(C(F)(F)F)c12 [Compound 173] | 56
* CCc1c(C)c2cc3[nH]c(=O)cc(C(F)(F)F)c3cc2n1CC(F)(F)F [Compound 163] | 37
* CC(C)C1c2c(ccc3[nH]c(=O)cc(C(F)(F)F)c23)N(CC(F)(F)F)C1C (racemic) [Compound 144] | 53

Kindly consider the entry below.
Task item: What measured AR Antagonist CV-1 Cells Efficacy (%) goes with CCCC1C(CC)c2c(ccc3[nH]c(=O)cc(C(F)(F)F)c23)N1CC(F)(F)F (racemic) [Compound 146] ?
Reply: 66

---

I'd be grateful if you could share measured AR Antagonist CV-1 Cells Efficacy (%) for these entries.
- study_target: human AR (Homo sapiens)
- Sequence (P10275 1-920): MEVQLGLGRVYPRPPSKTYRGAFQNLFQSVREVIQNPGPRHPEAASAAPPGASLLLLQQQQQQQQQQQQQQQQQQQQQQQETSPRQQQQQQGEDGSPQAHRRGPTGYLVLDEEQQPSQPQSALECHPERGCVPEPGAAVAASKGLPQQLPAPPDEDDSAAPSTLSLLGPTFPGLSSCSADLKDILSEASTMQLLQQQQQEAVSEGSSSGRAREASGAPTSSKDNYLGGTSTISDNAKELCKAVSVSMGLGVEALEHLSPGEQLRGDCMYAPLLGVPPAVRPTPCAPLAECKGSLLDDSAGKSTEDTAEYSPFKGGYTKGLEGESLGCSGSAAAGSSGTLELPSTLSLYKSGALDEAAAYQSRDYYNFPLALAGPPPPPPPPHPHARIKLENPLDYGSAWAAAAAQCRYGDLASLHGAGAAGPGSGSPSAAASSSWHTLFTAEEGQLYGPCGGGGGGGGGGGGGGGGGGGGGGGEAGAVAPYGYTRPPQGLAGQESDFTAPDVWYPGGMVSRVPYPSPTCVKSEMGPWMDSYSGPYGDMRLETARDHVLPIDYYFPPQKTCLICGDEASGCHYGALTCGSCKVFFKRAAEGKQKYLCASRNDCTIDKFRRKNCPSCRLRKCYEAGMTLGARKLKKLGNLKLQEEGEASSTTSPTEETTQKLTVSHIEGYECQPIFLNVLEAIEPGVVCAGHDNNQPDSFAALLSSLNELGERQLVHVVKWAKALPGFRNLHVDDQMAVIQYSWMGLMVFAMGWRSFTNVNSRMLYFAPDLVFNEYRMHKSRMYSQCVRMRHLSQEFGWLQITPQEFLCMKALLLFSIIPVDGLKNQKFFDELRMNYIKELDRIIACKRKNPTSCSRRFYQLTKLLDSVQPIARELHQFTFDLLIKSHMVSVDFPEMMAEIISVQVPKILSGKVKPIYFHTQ
- protocol_details: Co-transfection assay, AR antagonist activity in presence of DHT, CV-1 cells
- Type: cell-based
- Parameters: expressed in transfected cells; host or cells: CV-1 cells (African green monkey kidney fibroblasts), transient transfection with pRShAR
- condition_notes: CV-1 cells; percent maximal inhibition, DHT at its EC50 concentration

Worked cases, answers included:
- CCC1CCOc2cc3c(cc21)c(C(F)(F)F)c(F)c(=O)n3C (racemic): 78%
- CCC1C(C)c2c(ccc3[nH]c(=O)ccc23)N1CC(F)(F)F (racemic): 81%

Kindly give each listed record's AR Antagonist CV-1 Cells Efficacy (%).
1. O=c1cc(C(F)(F)F)c2c3c(ccc2[nH]1)N(CC(F)(F)F)CC3c1ccccc1 (racemic)
2. CCC1CCOc2c1ccc1[nH]c(=O)cc(C)c21 (racemic)
3. CCC1=CC(C)(C)Oc2cc3oc(=O)cc(C(F)(F)F)c3cc21

Reply:
["44%", "77%", "75%"]
